# target-entity: T1, MAGE-A4 peptide on HLA-A*02:01 (human)
# T1 peptide: KVLEHVVRV
# assay-details: multimer staining
reported-endpoint: binding result

PN41712 (TCR, V domains shown, stained with anti-mouse TCR constant region H57-597; full-length chains on transfected CHO cells; also called TCR No. 27) V domain 1: AQTVTQSQPEMSVQEAETVTLSCTYDTSENNYYLFWYKQPPSRQMILVIRQEAYKQQNATENRFSVNFQKAAKSFSLKISDSQLGDTAMYFCALNTGNQFYFGTGTSLTVIP V domain 2: GAVVSQHPSWVICKSGTSVKIECRSLDFQATTMFWYRQFPKQSLMLMATSNEGSKATYEQGVEKDKFLINHASLTLSTLTVTSAHPEDSSFYICSAWDGFYGYTFGSGTRLTVV :: recognises
PN41518 (TCR, V domains shown, stained with anti-mouse TCR constant region H57-597; full-length chains on transfected CHO cells; also called TCR No. 5) V domain 1: AQTVTQSQPEMSVQEAETVTLSCTYDTSESDYYLFWYKQPPSRQMILVIRQEAYKQQNATENRFSVNFQKAAKSFSLKISDSQLGDAAMYFCAYRSAPGNQFYFGTGTSLTVIP V domain 2: DVKVTQSSRYLVKRTGEKVFLECVQDMDHENMFWYRQDPGLGLRLIYFSYDVKMKEKGDIPEGYSVSREKKERFSLILESASTNQTSMYLCASSLWATNEKLFFGSGTQLSVL :: recognises
PN41703 (TCR, V domains shown, stained with anti-mouse TCR constant region H57-597; full-length chains on transfected CHO cells; also called TCR No. 26) V domain 1: DAKTTQPPSMDCAEGRAANLPCNHSTISGNEYVYWYRQIHSQGPQYIIHGLKNNETNEMASLIITEDRKSSTLILPHATLRDTAVYYCIVRPGGTYKYIFGTGTRLKVLA V domain 2: DVKVTQSSRYLVKRTGEKVFLECVQDMDHENMFWYRQDPGLGLRLIYFSYDVKMKEKGDIPEGYSVSREKKERFSLILESASTNQTSMYLCATGGDNQPQHFGDGTRLSIL :: recognises
